This section presents compounds with their documented standardised AUC values.
System: KHOS-NP
Assay: standardised AUC of viability dose-response curve (72 h) (fraction (0-1)); higher = less growth inhibition (more resistant)
A bare number is all that is needed in reply.

Observe how each entry below is paired with its result.
C[C@H](Nc1ncnc2nc[nH]c12)c1cc2cccc(Cl)c2c(=O)n1-c1ccccc1
0.985
CC(C)Oc1ccc(-c2nn([C@@H](C)c3oc4ccc(F)cc4c(=O)c3-c3cccc(F)c3)c3ncnc(N)c23)cc1F
0.994
O=c1sn(-c2cccc3ccccc23)c(=O)n1Cc1ccccc1
0.99

Now for a further compound.
Reading of standardised AUC for C[C@]12O[C@H](C[C@]1(O)CO)n1c3ccccc3c3c4c(c5c6ccccc6n2c5c31)CNC4=O with KHOS-NP: 0.762
